target: 7PPG4 TCR; assay: Steady-state surface plasmon resonance, pMHC on immobilized 7PPG4 TCR; type: binding, mouse; settings: Figure 5C; mimotope or p15E peptide displayed by H-2K^b as analyte, immobilized TCR, 25°C, steady state
Value Type: Kd

Request: Hello, please tell me recorded Kd for this one: VSPWFNTL [7PPG2-mim6, p15E mimotope identified from yeast display pMHC library selection with 7PPG2 TCR]
Result: > 100 µM

Source: paper PMC9260506
